Tested on: HCT-15 colon
assay.overview: NCI-60 one-dose screen, 48 h (100 = growth as untreated, 0 = no growth, -100 = all killed)
study.conditions: 1 µM
This is part of a sample that, as a whole, favours compounds with a hit. Of some 83,000 tested, about 20% had one in any assay.
test.readout: growth (%)
Answer format: numeric, % implied, no suffix.

(Q) So what's the measured growth for this one? `CC/C(=C(/c1ccc(O)cc1)c1ccc(OCCN(C)C(=O)COCCOCCNC(=O)Cc2ccc3c(c2)CN([C@@H]2CCC(=O)NC2=O)C3=O)cc1)c1ccccc1`
(A) 107

(Q) So what's the measured growth for this one? `CC/C(=C(\c1ccc(O)cc1)c1ccc(OCCN(C)C(=O)CCOCCNC(=O)c2ccc3c(c2)CN([C@@H]2CCC(=O)NC2=O)C3=O)cc1)c1ccccc1`
(A) 110

(Q) So what's the measured growth for this one? `CC/C(=C(\c1ccc(O)cc1)c1ccc(OCCN(C)C(=O)COCCNC(=O)Cc2ccc3c(c2)CN([C@@H]2CCC(=O)NC2=O)C3=O)cc1)c1ccccc1`
(A) 110

(Q) So what's the measured growth for this one? `CC/C(=C(/c1ccc(O)cc1)c1ccc(OCCN(C)C(=O)CCOCCNC(=O)Cc2ccc3c(c2)CN([C@@H]2CCC(=O)NC2=O)C3=O)cc1)c1ccccc1`
(A) 108

(Q) So what's the measured growth for this one? `CC/C(=C(/c1ccc(O)cc1)c1ccc(OCCN(C)C(=O)COCCOCCNC(=O)c2ccc3c(c2)CN([C@@H]2CCC(=O)NC2=O)C3=O)cc1)c1ccccc1`
(A) 105
